Measured Ki values are reported for all entries that follow.
- System name: α2A receptor (Homo sapiens)
- Construct: host or cells: LM(tk-) cells, line L-α2A
- Sequence (P08913 whole entry): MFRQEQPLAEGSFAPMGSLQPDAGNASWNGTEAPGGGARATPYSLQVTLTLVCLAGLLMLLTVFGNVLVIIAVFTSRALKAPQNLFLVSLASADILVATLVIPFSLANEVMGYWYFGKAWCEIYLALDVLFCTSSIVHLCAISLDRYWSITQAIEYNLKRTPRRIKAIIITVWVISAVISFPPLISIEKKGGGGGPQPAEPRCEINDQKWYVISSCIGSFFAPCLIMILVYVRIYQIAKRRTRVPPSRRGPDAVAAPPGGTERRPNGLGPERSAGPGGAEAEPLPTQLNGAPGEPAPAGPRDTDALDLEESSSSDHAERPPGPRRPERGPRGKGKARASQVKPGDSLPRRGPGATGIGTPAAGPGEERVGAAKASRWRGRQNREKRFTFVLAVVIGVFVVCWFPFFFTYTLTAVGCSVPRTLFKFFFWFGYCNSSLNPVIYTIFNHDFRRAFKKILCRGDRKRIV
- Method summary: Competition binding, [3H]rauwolscine, human α2A receptor
- Details: [3H]rauwolscine, human α2A receptor, LM(tk−) cells; read-out: pKi alpha-2 2a (converted)
Endpoint name: Ki (nM)

{"columns": ["Molecule", "Reading"],
 "data": [
  ["CCC1=C(C(=O)NCCCN2CCC(c3ccccc3)(c3ccccc3)CC2)C(c2cccc(OC)c2)C(C(N)=O)=C(C)N1 (stereo not shown)", 759],
  ["CCC1=C(C(=O)NCCCN2CCC(c3ccccc3)(c3ccccc3)CC2)C(c2ccc([N+](=O)[O-])cc2)C(C(=O)OC(C)(C)C)=C(COCCN=[N+]=[N-])N1 (stereo not shown)", 832],
  ["CCC1=C(C(N)=O)C(c2ccc([N+](=O)[O-])cc2)C(C(=O)NCCCN2CCN(c3ccccc3OC)CC2)=C(CC)N1 (stereo not shown)", 26.9],
  ["CCC1=C(C(N)=O)C(c2ccc(S(C)(=O)=O)cc2)C(C(=O)NCCCN2CCC(c3ccccc3)(c3ccccc3)CC2)=C(CC)N1 (stereo not shown)", 1450]
]}
